Test: PK of compound of Formula (Ia) after single subcutaneous dose of solution formulations in beagle dogs
Format: in vivo
Settings: male, beagle, dog, plasma, sc, 12 mg/kg, beagle dogs, SC 12 mg/kg, 400 mg/mL solution Y (water, PEG 300), 72.0 h, animals #1-#3
Experimental: Formulations containing the compound of Formula (Ia), or a pharmaceutically acceptable salt thereof, were prepared as solutions and optionally administered subcutaneously or intramuscularly to rats, rabbits, and/or dogs. A solution of about 400 mg/mL of the compound of Formula (Ia) having 17.00 w/w % water, 36.40 w/w % PEG 300, 35.20 w/w % of a sodium salt of a compound of Formula (Ia), 5.00 w/w % ethanol, and 6.40 w/w % poloxamer 188 was prepared. […]
measured quantity: concentration at 72 h

Give the measured concentration at 72 h for CC(C)(C#Cc1ccc(-c2ccc(Cl)c3c(NS(C)(=O)=O)nn(CC(F)(F)F)c23)c([C@H](Cc2cc(F)cc(F)c2)NC(=O)Cn2nc(C(F)(F)F)c3c2C(F)(F)[C@@H]2C[C@H]32)n1)S(C)(=O)=O [compound of Formula (Ia)]
73.6 nM
